// provenance: patent US12391672B2

# experiment_description: Dynamic vapor sorption / hygroscopicity
# Format: physicochemical
# run_parameters: after the DVS humidity cycle
measured_metric: solid form after DVS cycle

compound="Cl.N#Cc1ccc(N2CCN(Cc3ccc(COc4cccc5c4CN(C4CCC(=O)NC4=O)C5=O)cc3)CC2)c(F)c1 (centres unmarked)" result="remains as Form A"
compound=Br.N#Cc1ccc(N2CCN(Cc3ccc(COc4cccc5c4CN([C@H]4CCC(=O)NC4=O)C5=O)cc3)CC2)c(F)c1 result="remains as Form A"
